Data origin: patent US12414961B2

test name: Cytotoxicity in HepG2 cells (HBV assay)
Assay type: cell-based
particulars: human, HepG2.2.15 cells; beside HBV
metric: CC50 at 6 days

compound	value observed
CC(C)OC(=O)[C@H](C)NP(=O)(OC[C@H]1O[C@@H](n2ccc(=O)[nH]c2=S)C(C)(O)[C@H]1O)Oc1ccccc1 (stereo partly shown) [drawing 394]	> 100 µM

###

Test system: Huh-7 cells
test name: Cytotoxicity in Huh-7 cells (Adenovirus, HSV-1 assays)
Type: cell-based, human
particulars: beside HSV-1

compound	test target	CC50
CC(C)OC(=O)[C@H](C)NP(=O)(OC[C@H]1O[C@@H](n2ccc(=O)[nH]c2=S)C(C)(O)[C@H]1O)Oc1ccccc1 (stereo partly shown) [drawing 394]	Huh-7 cells	> 100 µM

###

Tested on: MRC-5 Cells
test name: Cytotoxicity in MRC-5 cells (HCMV, VZV assays)
Format: cell-based
particulars: beside VZV

compound	CC50
CC(C)OC(=O)[C@H](C)NP(=O)(OC[C@H]1O[C@@H](n2ccc(=O)[nH]c2=S)C(C)(O)[C@H]1O)Oc1ccccc1 (stereo partly shown) [drawing 394]	> 100 µM

###

System: Adenovirus
test name: Adenovirus antiviral assay
Format: cell-based
particulars: unidentified adenovirus
metric: EC50

molecule	test target	metric	value observed
CC(C)OC(=O)[C@H](C)NP(=O)(OC[C@H]1O[C@@H](n2ccc(=O)[nH]c2=S)C(C)(O)[C@H]1O)Oc1ccccc1 (stereo partly shown) [drawing 394]	Adenovirus	EC50	> 100 µM

###

test name: Cytotoxicity in MRC-5 cells (HCMV, VZV assays)
Assay type: cell-based
particulars: human, MRC-5 cells; beside HCMV

molecule	CC50
CC(C)OC(=O)[C@H](C)NP(=O)(OC[C@H]1O[C@@H](n2ccc(=O)[nH]c2=S)C(C)(O)[C@H]1O)Oc1ccccc1 (stereo partly shown) [drawing 394]	> 100 µM

###

test name: Cytotoxicity (CC50) H9c
Format: cell-based
particulars: rat, H9c cells

molecule	CC50
CC(C)OC(=O)[C@H](C)NP(=O)(OC[C@H]1O[C@@H](n2ccc(=O)[nH]c2=S)C(C)(O)[C@H]1O)Oc1ccccc1 (stereo partly shown) [drawing 387]	> 200 µM

###

Tested on: Dengue Type 2
test name: Anti-Dengue virus cytoprotection assay, Huh-7 cells
particulars: Huh-7, read-out: Dengue Type 2 Huh-7 Cells (EC50 uM)

molecule	unit descriptor	result qualifier	EC50
C#C[C@]1(COP(=O)(N[C@@H](C)C(=O)OC(C)C)Oc2ccccc2)O[C@@H](n2ccc(=O)[nH]c2=S)C(O)[C@H]1O (stereo partly shown)	µM	>	100
CC(C)OC(=O)[C@H](C)NP(=O)(OC[C@@]1(N=[N+]=[N-])O[C@@H](n2ccc(=S)[nH]c2=O)C(O)[C@H]1O)Oc1ccccc1 (stereo partly shown)	µM	=	4.82
CC(C)OC(=O)[C@H](C)N[P@](=O)(OC[C@H]1O[C@@H](n2ccc(=O)[nH]c2=S)C(C)(O)[C@H]1O)Oc1ccccc1 (stereo partly shown) [drawing 388]	µM	=	5.62
CC1(O)[C@@H](O)[C@@H](CO)O[C@H]1n1ccc(=O)[nH]c1=S (stereo partly shown)	µM	>	100
CC(C)OC(=O)[C@H](C)NP(=O)(OC[C@H]1O[C@@H](n2ccc(=O)[nH]c2=S)C(C)[C@H]1O)Oc1ccccc1 (stereo partly shown)	µM	=	6.07
CC(C)OC(=O)[C@H](C)N[P@@](=O)(OC[C@H]1O[C@@H](n2ccc(=O)[nH]c2=S)C(C)(O)[C@H]1O)Oc1ccccc1 (stereo partly shown)	µM	=	24.9
CC(C)OC(=O)[C@H](C)NP(=O)(OC[C@H]1O[C@@H](n2ccc(=O)[nH]c2=S)C(C)(O)[C@H]1O)Oc1ccccc1 (stereo partly shown) [drawing 387]	µM	=	5.1

###

Listing of entries alongside the reported CC50.
test name: Cytotoxicity (CC50) CEM
particulars: human, CEM cells

molecule	CC50
CC(C)OC(=O)[C@H](C)NP(=O)(OC[C@H]1O[C@@H](n2ccc(=O)[nH]c2=S)C(C)(O)[C@H]1O)Oc1ccccc1 (stereo partly shown) [drawing 387]	> 300 µM
CC(C)OC(=O)[C@H](C)N[P@@](=O)(OC[C@H]1O[C@@H](n2ccc(=O)[nH]c2=S)C(C)(O)[C@H]1O)Oc1ccccc1 (stereo partly shown)	> 400 µM
CC(C)OC(=O)[C@H](C)NP(=O)(OC[C@H]1O[C@@H](n2ccc(=O)[nH]c2=S)C(C)[C@H]1O)Oc1ccccc1 (stereo partly shown)	259 µM
CC(C)OC(=O)[C@H](C)N[P@](=O)(OC[C@H]1O[C@@H](n2ccc(=O)[nH]c2=S)C(C)(O)[C@H]1O)Oc1ccccc1 (stereo partly shown) [drawing 388]	> 400 µM
C#C[C@]1(COP(=O)(N[C@@H](C)C(=O)OC(C)C)Oc2ccccc2)O[C@@H](n2ccc(=O)[nH]c2=S)C(O)[C@H]1O (stereo partly shown)	> 400 µM
CC(C)OC(=O)[C@H](C)NP(=O)(OC[C@@]1(N=[N+]=[N-])O[C@@H](n2ccc(=S)[nH]c2=O)C(O)[C@H]1O)Oc1ccccc1 (stereo partly shown)	229 µM
CC1(O)[C@@H](O)[C@@H](CO)O[C@H]1n1ccc(=O)[nH]c1=S (stereo partly shown)	> 200 µM

###

System: Huh-7 cells
test name: Cytotoxicity in Huh-7 cells of the HCV replicon assay
particulars: read-out: Huh-7 cells (CC50 uM)
Below, each of the compounds is paired with its reported CC50 value.

compound	CC50
CC(C)OC(=O)[C@H](C)NP(=O)(OC[C@@]1(N=[N+]=[N-])O[C@@H](n2ccc(=S)[nH]c2=O)[C@@H](O)C1O)Oc1ccccc1 (stereo partly drawn)	> 100 µM
C[C@H](NP(=O)(O)OC[C@H]1O[C@@H](n2ccc(=O)[nH]c2=S)[C@](C)(O)C1O)C(=O)O (stereo partly drawn)	> 100 µM
C[C@@]1(O)C(O)[C@@H](COP(=O)(O)O)O[C@H]1n1ccc(=O)[nH]c1=S (stereo partly drawn)	> 100 µM

###

System: HIV
test name: HIV infected PBMC assay
Type: cell-based
particulars: Human immunodeficiency virus 1, PBMC

molecule	EC50
CC(C)OC(=O)[C@H](C)NP(=O)(OC[C@H]1O[C@@H](n2ccc(=O)[nH]c2=S)C(C)(O)[C@H]1O)Oc1ccccc1 (stereo partly shown) [drawing 394]	> 100 µM

###

Let's look at some compounds and their measured CC50.
Test system: IEC-6
test name: Cytotoxicity (CC50) IEC-6
Type: cell-based
particulars: IEC-6

compound	test target	CC50
CC(C)OC(=O)[C@H](C)NP(=O)(OC[C@H]1O[C@@H](n2ccc(=O)[nH]c2=S)[C@](C)(O)C1O)Oc1ccccc1 (some centres unmarked) [drawing 366]	IEC-6	> 200 µM
CC(C)OC(=O)[C@H](C)NP(=O)(OC[C@H]1O[C@@H](n2ccc(=O)[nH]c2=S)[C@](C)(O)C1O)Oc1ccccc1 (some centres unmarked) [drawing 369]	IEC-6	> 200 µM

###

test name: Cytotoxicity in PBM cells
Type: cell-based
particulars: human, peripheral blood mononuclear cells (PBMCs), PHA-P stimulated; beside HIV
metric: CC50 at 7 days

compound	value observed
CC(C)OC(=O)[C@H](C)NP(=O)(OC[C@H]1O[C@@H](n2ccc(=O)[nH]c2=S)C(C)(O)[C@H]1O)Oc1ccccc1 (stereo partly shown) [drawing 394]	> 100 µM

###

Reported CC50 values follow for various molecules
System: CEM
test name: Cytotoxicity (CC50) CEM
particulars: read-out: Cytotoxicity (CC50 uM) CEM; CEM

molecule	test target	CC50
CC(C)OC(=O)[C@H](C)N[P@](=O)(OC[C@H]1O[C@@H](n2ccc(=O)[nH]c2=O)[C@](C)(F)C1O)Oc1ccccc1 (stereo partly shown) [drawing 373]	CEM	> 400 µM
CC(C)OC(=O)[C@H](C)N[P@](=O)(OC[C@H]1O[C@@H](n2ccc(=O)[nH]c2=S)[C@](C)(O)C1O)Oc1ccccc1 (stereo partly shown) [drawing 371]	CEM	> 400 µM
CC(C)OC(=O)[C@H](C)NP(=O)(OC[C@@]1(N=[N+]=[N-])O[C@@H](n2ccc(=S)[nH]c2=O)[C@@H](O)C1O)Oc1ccccc1 (stereo partly shown)	CEM	229 µM
CC(C)OC(=O)[C@H](C)N[P@@](=O)(OC[C@H]1O[C@@H](n2ccc(=O)[nH]c2=O)[C@](C)(F)C1O)Oc1ccccc1 (stereo partly shown)	CEM	> 400 µM
CC(C)OC(=O)[C@H](C)N[P@@](=O)(OC[C@H]1O[C@@H](n2ccc(=O)[nH]c2=S)[C@](C)(O)C1O)Oc1ccccc1 (stereo partly shown)	CEM	> 400 µM
C[C@@]1(O)C(O)[C@@H](COP(=O)(O)O)O[C@H]1n1ccc(=O)[nH]c1=S (stereo partly shown)	CEM	> 400 µM
C[C@@]1(O)C(O)[C@@H](CO)O[C@H]1n1ccc(=S)[nH]c1=O (stereo partly shown)	CEM	> 400 µM
